Quick reference: zone of inhibition at 50 µg/disc of the listed items.
- Test system: Escherichia coli
- method: Antibacterial activity against Escherichia coli assessed as zone of inhibition at 0.05 mg by agar diffusion method
- Format: functional
- condition: read-out: IZ
test_readout: zone of inhibition at 50 µg/disc (mm)

# molecule, value_observed
rows = [
    ("C=C(CC[C@@H](C)[C@H]1CC[C@@H]([C@@H]2CC=C3C[C@@H](O[C@@H]4O[C@@H](C)[C@@H](OC(C)=O)[C@@H](O)[C@@H]4O)CC[C@]3(C)C2=O)[C@]1(C)CCO)C(C)C [SINULAROSIDE B]", 0),
    ("CN[C@@H]1[C@H](O[C@H]2[C@H](O[C@H]3[C@H](O)[C@@H](O)[C@H](N=C(N)N)[C@@H](O)[C@@H]3N=C(N)N)O[C@@H](C)[C@]2(O)C=O)O[C@@H](CO)[C@H](O)[C@H]1O [STREPTOMYCIN]", 25),
    ("CC1(C)S[C@@H]2[C@H](NC(=O)Cc3ccccc3)C(=O)N2[C@H]1C(=O)O [PENICILLIN G]", 20),
    ("C=C(CC[C@@H](C)[C@H]1CC[C@@H]([C@@H]2CC=C3C[C@@H](O[C@@H]4O[C@@H](C)[C@@H](O)[C@@H](O)[C@@H]4O)CC[C@]3(C)C2=O)[C@]1(C)CCO)C(C)C [SINULAROSIDE A]", 0),
]

----------
- System: HepG2
- method: Cytotoxicity against human HepG2 cells by MTT assay
- Type: functional, cell-based
test_readout: IC50 (nM)

# smiles_str, test_readout, value_observed
records = [
    ("COc1cccc2c1C(=O)c1c(O)c3c(c(O)c1C2=O)C[C@@](O)(C(=O)CO)C[C@@H]3O[C@H]1C[C@H](N)[C@H](O)[C@H](C)O1", "IC50", 2700),
]
